- Test system: ATP;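 further: ATP exposure 15 min at 22 °C before imaging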
- assay.details: switch fluorescence ratio, 500 uM ATP over buffer (Cy3 cluster intensity, sum of 5 cycles each) (fold (ratio)); higher = stronger signal-on switching upon ATP binding; sequences stand for … in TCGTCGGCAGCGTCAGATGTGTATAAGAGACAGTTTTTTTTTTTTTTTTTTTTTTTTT…TC
- setup.conditions: aptamer strand: ATP DNA aptamer (quencher-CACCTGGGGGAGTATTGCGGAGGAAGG + anchor), 100 nM annealed; ATP concentration: 500 uM
For each record, write down the corresponding switch fluorescence ratio.
Give bare numbers.

List the reported switch fluorescence ratio of each sequence below.
1. GTTAGTCTGA
2. AATAATAAAC
3. CAACTTCCCC
4. TTGTTTGTAA
5. TTTATGTGGA
6. TATTGTAATG

1. 1.01
2. 1.01
3. 1.22
4. 1.04
5. 1.01
6. 1.04

====

- Tested on: ATP;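 further: ATP exposure 15 min at 22 °C before imaging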
- assay.details: switch fluorescence ratio, 500 uM ATP over buffer (Cy3 cluster intensity, sum of 5 cycles each) (fold (ratio)); higher = stronger signal-on switching upon ATP binding; sequences stand for … in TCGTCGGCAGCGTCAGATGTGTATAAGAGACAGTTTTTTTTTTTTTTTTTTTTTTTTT…TC
- setup.conditions: aptamer strand: ATP DNA aptamer (quencher-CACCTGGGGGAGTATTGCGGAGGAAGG + anchor), 100 nM annealed; ATP concentration: 500 uM
attribute.measured: switch fluorescence ratio
Answers are plain numbers.

> print(dat)
   construct.sequence  observed.measurement
1          GGGCTTAAGG                  0.97
2          TCTTGAGCTT                  1.04
3          GAGTAAAACA                  1.16
4          TCCATTAGAT                  1.02
5          CGTGGGAATA                 0.999

List the reported switch fluorescence ratio of each sequence below.
1. CGTTGATCAG
2. GAGGTATGGA
3. TTCTGTTATT
4. ATTAGTCCGG
5. GCAGGGGGTG
6. TTTCGAAGGT

1: 0.976; 2: 0.984; 3: 1.11; 4: 0.994; 5: 1.11; 6: 0.987

====

- Test system: ATP;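 further: ATP exposure 15 min at 22 °C before imaging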
- assay.details: switch fluorescence ratio, 500 uM ATP over buffer (Cy3 cluster intensity, sum of 5 cycles each) (fold (ratio)); higher = stronger signal-on switching upon ATP binding; sequences stand for … in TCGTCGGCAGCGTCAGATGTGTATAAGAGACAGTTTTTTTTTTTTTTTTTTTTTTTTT…TC
- setup.conditions: aptamer strand: ATP DNA aptamer (quencher-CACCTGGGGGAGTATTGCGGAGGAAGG + anchor), 100 nM annealed; ATP concentration: 500 uM
attribute.measured: switch fluorescence ratio

These solved cases illustrate the format of a correct answer.
> print(dat)
   construct.sequence  observed.measurement
1          GGTTCCAAAA                  1.02
2          GGGAATGTTT                 0.978
3          CGGATGGTGT                  0.97

List the reported switch fluorescence ratio of each sequence below.
1. AGGGTATTTA
2. GCTCTGAGTA
3. GCGACAAAAT
4. TATTTTGAGT
5. AAGTCTTTTC
6. CAGGACCTCG
7. ATCGGCGGTG

1: 1.01; 2: 1.04; 3: 1.11; 4: 0.989; 5: 0.975; 6: 1.03; 7: 0.986
